Each entry below lists one item and its recorded TGI value.
# System: A549 NSCLC
# procedure.details: NCI tumour cell line growth inhibition, 48 h

molecule: CCCN(CCC)C(=O)c1c(N2CCN(C)CC2)c2cccnc2n2c(C)cnc12
quantity.kind: TGI
recorded.measurement: > 100 µM
//
molecule: CCNC(=S)NNC(=O)c1ccccc1Nc1ccccc1C(=O)NNC(=S)NCC
quantity.kind: TGI
recorded.measurement: > 100 µM
//
molecule: NC(=S)N1N=C2c3ccccc3CCC[C@H]2[C@@H]1c1ccccc1
quantity.kind: TGI
recorded.measurement: > 53.7 µM
//
molecule: COc1cc(-c2ccc[nH]2)[nH]c1/C=C1\N=C(C)C(CC(=O)OCC(C)(C)C)=C1C
quantity.kind: TGI
recorded.measurement: 1.24 µM
//
molecule: CC1(C)C(=O)/C=C\C(=O)C(C)(C)C(=O)/C=C\C(=O)C(C)(C)C2=CC=C(O2)C(C)(C)C(=O)/C=C\C1=O
quantity.kind: TGI
recorded.measurement: 49.7 µM
//
molecule: COC(=O)CC1=C(C)/C(=C/c2[nH]c(-c3ccc[nH]3)cc2OC)N=C1C
quantity.kind: TGI
recorded.measurement: 3.69 µM

Field TGI (entry CCCCCCCCCCCC[N+]12CC[N+](C)(CC1)CC2 ) reads > 100 µM

Field TGI (entry O=c1c2c3c(sc2nc2n1NC=NN2)CCCC3 ) reads > 100 µM

Field TGI (entry CC(=O)[CH-]C(=O)c1ccccc1.CC(=O)[CH-]C(=O)c1ccccc1.CC(=O)[CH-]C(=O)c1ccccc1.[Ga+3] ) reads > 100 µM

Field TGI (entry COc1ccc2c(c1)-c1c(c3cc(OC)ccc3n(CCN(C)C)c1=O)C2=O ) reads 2.97 µM

Field TGI (entry COC(=O)c1ccccc1C1CN=NC12Cc1ccc3c(c1C2=O)CCC3 (stereo not given) ) reads > 100 µM

Origin of values: PubChem BioAssay (NCI)
